- test_summary: Pharmacokinetic experiment in mice
- Type: in vivo, CD-1 female mice
- details: female, CD-1, mouse, plasma, Oral administration (10 mg/kg)
Give measured AUC(0-t) for each item. Keep answers brief.
Answers are plain numbers, in µg·h/mL.

[2H]c1c(F)ccc(NC(=O)c2ccc(CNC(=O)/C=C/c3cccnc3)cc2)c1N : 2.16

List AUC(0-t) for every entry below, keeping the order given.
1. [2H]c1cncc(/C=C/C(=O)NCc2ccc(C(=O)Nc3ccc(F)cc3N)cc2)c1
2. [2H]/C(=C\C(=O)NCc1ccc(C(=O)Nc2ccc(F)cc2N)cc1)c1cccnc1
3. [2H]c1ncccc1/C=C/C(=O)NCc1ccc(C(=O)Nc2ccc(F)cc2N)cc1
4. [2H]c1cc(C(=O)Nc2ccc(F)cc2N)ccc1CNC(=O)/C=C/c1cccnc1

Outgoing:
1.33
1.43
1.05
2.36

List AUC(0-t) for every entry below, keeping the order given.
1. [2H]c1cc(NC(=O)c2ccc(CNC(=O)/C=C/c3cccnc3)cc2)c(N)cc1F
2. Nc1cc(F)ccc1NC(=O)c1ccc(CNC(=O)/C=C/c2cccnc2)cc1 [Chidamide, reference compound]

Outgoing:
1. 1.89
2. 2.49

List AUC(0-t) for every entry below, keeping the order given.
1. [2H]c1cc(CNC(=O)/C=C/c2cccnc2)ccc1C(=O)Nc1ccc(F)cc1N
2. [2H]c1cc(F)cc(N)c1NC(=O)c1ccc(CNC(=O)/C=C/c2cccnc2)cc1
3. [2H]c1ccc(/C=C/C(=O)NCc2ccc(C(=O)Nc3ccc(F)cc3N)cc2)cn1

Outgoing:
1: 1.71; 2: 1.77; 3: 1.61

====

Give measured AUC(0-t) for each item. Keep answers brief.
- test_summary: Pharmacokinetic experiment in mice
- Type: in vivo, CD-1 female mice
- details: female, CD-1, mouse, plasma, Injection (1 mg/kg), intravenous
Answers are plain numbers, in µg·h/mL.

List AUC(0-t) for every entry below, keeping the order given.
1. [2H]c1cc(C(=O)Nc2ccc(F)cc2N)ccc1CNC(=O)/C=C/c1cccnc1
2. [2H]c1cncc(/C=C/C(=O)NCc2ccc(C(=O)Nc3ccc(F)cc3N)cc2)c1
3. [2H]c1cc(CNC(=O)/C=C/c2cccnc2)ccc1C(=O)Nc1ccc(F)cc1N
4. [2H]c1cc(NC(=O)c2ccc(CNC(=O)/C=C/c3cccnc3)cc2)c(N)cc1F
5. [2H]c1c(F)ccc(NC(=O)c2ccc(CNC(=O)/C=C/c3cccnc3)cc2)c1N
6. [2H]c1cc(F)cc(N)c1NC(=O)c1ccc(CNC(=O)/C=C/c2cccnc2)cc1
7. [2H]c1ccc(/C=C/C(=O)NCc2ccc(C(=O)Nc3ccc(F)cc3N)cc2)cn1

Outgoing:
0.453
0.733
0.602
0.401
0.441
0.592
0.514

====

- test_summary: Pharmacokinetic experiment in rats
- Type: in vivo
- details: female, rat, plasma, Oral administration (10 mg/kg)
quantity_kind: Cmax (ng/mL)
One number for each entry, in ng/mL.

Incoming: Fill in: Cmax of [2H]c1cc(C(=O)Nc2ccc(F)cc2N)ccc1CNC(=O)/C=C/c1cccnc1 [Compound 5] is ___
Outgoing: 3420

====

- test_summary: Pharmacokinetic experiment in rats
- Assay type: in vivo
- details: female, rat, plasma, Oral administration (10 mg/kg)
quantity_kind: Tmax
The answer consists of two parts: a number and, after it, its unit.

Incoming: Fill in: Tmax of [2H]c1cc(C(=O)Nc2ccc(F)cc2N)ccc1CNC(=O)/C=C/c1cccnc1 [Compound 5] is ___
Outgoing: 9.6 min

====

- test_summary: Stability in liver microsomes
- Format: in vitro ADME
- details: Human liver microsomes 0.5 mg/mL, 1 µM compound, NADPH, 37 °C
quantity_kind: half-life at 1 µM
The answer consists of two parts: a number and, after it, its unit.

Take a look at these entries with their results.
[2H]/C(=C\C(=O)NCc1ccc(C(=O)Nc2ccc(F)cc2N)cc1)c1cccnc1 : 1.58 h
[2H]c1cncc(/C=C/C(=O)NCc2ccc(C(=O)Nc3ccc(F)cc3N)cc2)c1 : 1.22 h

As a next step, examine the molecule that follows.
Incoming: Fill in: half-life at 1 µM of [2H]c1cc(C(=O)Nc2ccc(F)cc2N)ccc1CNC(=O)/C=C/c1cccnc1 is ___
Outgoing: 3.64 h

====

- test_summary: Pharmacokinetic experiment in rats
- Type: in vivo
- details: female, rat, plasma, Oral administration (10 mg/kg)
quantity_kind: AUC(0-t) (ng·h/mL)
Numbers only, in ng·h/mL.

Incoming: Fill in: AUC(0-t) of [2H]c1cc(C(=O)Nc2ccc(F)cc2N)ccc1CNC(=O)/C=C/c1cccnc1 is ___
Outgoing: 5150

====

- test_summary: Pharmacokinetic experiment in mice
- Type: in vivo, CD-1 female mice
- details: female, CD-1, mouse, plasma, Oral administration (10 mg/kg)
quantity_kind: half-life (h)
Give bare numbers, in h.

Take a look at these entries with their results.
Nc1cc(F)ccc1NC(=O)c1ccc(CNC(=O)/C=C/c2cccnc2)cc1 [Chidamide, reference compound] : 3.51
[2H]c1ncccc1/C=C/C(=O)NCc1ccc(C(=O)Nc2ccc(F)cc2N)cc1 [Compound 9] : 1.21
[2H]c1cc(C(=O)Nc2ccc(F)cc2N)ccc1CNC(=O)/C=C/c1cccnc1 [Compound 5] : 3.13
[2H]/C(=C\C(=O)NCc1ccc(C(=O)Nc2ccc(F)cc2N)cc1)c1cccnc1 [Compound 8] : 1.87
[2H]c1c(F)ccc(NC(=O)c2ccc(CNC(=O)/C=C/c3cccnc3)cc2)c1N [Compound 2] : 1.85

List half-life for every entry below, keeping the order given.
1. [2H]c1ccc(/C=C/C(=O)NCc2ccc(C(=O)Nc3ccc(F)cc3N)cc2)cn1 [Compound 12]
2. [2H]c1cc(CNC(=O)/C=C/c2cccnc2)ccc1C(=O)Nc1ccc(F)cc1N [Compound 4]
3. [2H]c1cc(NC(=O)c2ccc(CNC(=O)/C=C/c3cccnc3)cc2)c(N)cc1F [Compound 1]
4. [2H]c1cc(F)cc(N)c1NC(=O)c1ccc(CNC(=O)/C=C/c2cccnc2)cc1 [Compound 3]
5. [2H]c1cncc(/C=C/C(=O)NCc2ccc(C(=O)Nc3ccc(F)cc3N)cc2)c1 [Compound 11]

Outgoing:
1. 1.93
2. 3.9
3. 2.76
4. 2.21
5. 1.19

====

- test_summary: Pharmacokinetic experiment in mice
- Assay type: in vivo, CD-1 female mice
- details: female, CD-1, mouse, plasma, Injection (1 mg/kg), intravenous
quantity_kind: AUC(0-t) (ng·h/mL)
Answers are plain numbers, in ng·h/mL.

Nc1cc(F)ccc1NC(=O)c1ccc(CNC(=O)/C=C/c2cccnc2)cc1 [Chidamide, reference compound] : 539

List AUC(0-t) for every entry below, keeping the order given.
1. [2H]/C(=C\C(=O)NCc1ccc(C(=O)Nc2ccc(F)cc2N)cc1)c1cccnc1 [Compound 8]
2. [2H]c1ncccc1/C=C/C(=O)NCc1ccc(C(=O)Nc2ccc(F)cc2N)cc1 [Compound 9]

Outgoing:
1. 903
2. 1000

The values you see were collected from patent EP4631931A1.
